Molecular target: KPC-2 β-lactamase (purified) (UniProt Q9F663 30-293)
Sequence (Q9F663 30-293): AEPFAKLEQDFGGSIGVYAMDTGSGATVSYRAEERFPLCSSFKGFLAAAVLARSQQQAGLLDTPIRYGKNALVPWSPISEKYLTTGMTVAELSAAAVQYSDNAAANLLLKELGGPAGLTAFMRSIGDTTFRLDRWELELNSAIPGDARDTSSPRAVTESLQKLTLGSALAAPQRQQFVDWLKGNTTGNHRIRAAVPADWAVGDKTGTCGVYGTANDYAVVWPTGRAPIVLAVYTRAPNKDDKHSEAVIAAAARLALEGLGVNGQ
Test: cell-based or functional assay
Observable: ampicillin MIC of E. coli TP142 (chromosomal blaKPC-2) carrying the BLIP plasmid (µg/mL)
API: value field is a number in µg/mL; no unit string.

1) BLIP W112D (natural protein) AGVMTGAKFTQIQFGMTRQQVLDIAGAENCETGGSFGDSIHCRGHAAGDYYAYATFGFTSAAADAKVDSKSQEKLLAPSAPTLTLAKFNQVTVGMTRAQVLATVGQGSCTTDSEYYPAYPSTAGVTLSLSCFDVDGYSSTGFYRGSAHLWFTDGVLQGKRQWDLV    1
2) BLIP R160G (natural protein) AGVMTGAKFTQIQFGMTRQQVLDIAGAENCETGGSFGDSIHCRGHAAGDYYAYATFGFTSAAADAKVDSKSQEKLLAPSAPTLTLAKFNQVTVGMTRAQVLATVGQGSCTTWSEYYPAYPSTAGVTLSLSCFDVDGYSSTGFYRGSAHLWFTDGVLQGKGQWDLV    0.75
3) BLIP K74T (natural protein) AGVMTGAKFTQIQFGMTRQQVLDIAGAENCETGGSFGDSIHCRGHAAGDYYAYATFGFTSAAADAKVDSKSQETLLAPSAPTLTLAKFNQVTVGMTRAQVLATVGQGSCTTWSEYYPAYPSTAGVTLSLSCFDVDGYSSTGFYRGSAHLWFTDGVLQGKRQWDLV    1.5
4) β-lactamase inhibitory protein (BLIP), wild type (natural protein, Streptomyces clavuligerus, UniProt P35804 37-201, looked up) AGVMTGAKFTQIQFGMTRQQVLDIAGAENCETGGSFGDSIHCRGHAAGDYYAYATFGFTSAAADAKVDSKSQEKLLAPSAPTLTLAKFNQVTVGMTRAQVLATVGQGSCTTWSEYYPAYPSTAGVTLSLSCFDVDGYSSTGFYRGSAHLWFTDGVLQGKRQWDLV    1

In: Output ampicillin MIC of E. coli TP142 (chromosomal blaKPC-2) carrying the BLIP plasmid of BLIP E73K (natural protein) AGVMTGAKFTQIQFGMTRQQVLDIAGAENCETGGSFGDSIHCRGHAAGDYYAYATFGFTSAAADAKVDSKSQKKLLAPSAPTLTLAKFNQVTVGMTRAQVLATVGQGSCTTWSEYYPAYPSTAGVTLSLSCFDVDGYSSTGFYRGSAHLWFTDGVLQGKRQWDLV
Out: 1.5
